target: IL33 and ST2 binding (Homo sapiens); settings: 30 µM;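 also: plate ELISA with coated Flag-tagged human IL-33 and His-tagged human ST2, bound ST2 detected by anti-His HRP and TMB absorbance at 450 nm, 2 h compound incubation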
Sequence (O95760 112-270 limits assumed): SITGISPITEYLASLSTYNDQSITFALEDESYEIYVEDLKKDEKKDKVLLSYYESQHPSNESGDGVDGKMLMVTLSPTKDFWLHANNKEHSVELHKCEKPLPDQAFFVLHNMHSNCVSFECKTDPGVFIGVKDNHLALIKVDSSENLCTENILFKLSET
property.name: inhibition (%)

As a guide, the following entries are already answered.
- compound: "CCN(CC)CCNC(=O)c1nc(-c2ccc(C(C)(C)C)cc2)oc1-c1ccccc1 [Compound 267]"
  inhibition / %: 23
- compound: "CCOC(=O)c1nc(-c2ccc(OC)cc2)oc1-c1ccccc1 [Compound 62]"
  inhibition / %: 33
- compound: "CC(=O)N1CCN(CCNC(=O)c2nc(-c3ccc(C(F)(F)F)cc3)oc2-c2cccnc2)CC1 [Compound 197]"
  inhibition / %: 99

(a) CCNC(=O)c1nc(-c2ccc(C#N)cc2)oc1-c1ccccc1 [Compound 315]
(b) CCOC(=O)c1nc(-c2cccc(OC)c2)oc1-c1ccccc1 [Compound 60]
(c) CCOC(=O)c1nc(-c2ccc(Cl)cc2)oc1-c1ccccc1 [Compound 77]
(d) COc1cccc(-c2oc(-c3ccc(C(F)(F)F)cc3)nc2C(=O)NCCN2CCN(C(C)=O)CC2)c1 [Compound 198]
# input Returns the items ordered by inhibition, from maximum to minimum. Provide the labels, sequenced as the question asks.
# output c, b, d, a
